This collection of values is drawn from patent US20190062438A1.

# Experimental target: T1, soluble Homo sapiens CD131 comprising a C-terminal 6xHis tag (human, UniProt P32927 17-438)
# T1 construct: truncated after Ser438, C-terminal 6xHis; also called shCD131; shβc
# T1 sequence: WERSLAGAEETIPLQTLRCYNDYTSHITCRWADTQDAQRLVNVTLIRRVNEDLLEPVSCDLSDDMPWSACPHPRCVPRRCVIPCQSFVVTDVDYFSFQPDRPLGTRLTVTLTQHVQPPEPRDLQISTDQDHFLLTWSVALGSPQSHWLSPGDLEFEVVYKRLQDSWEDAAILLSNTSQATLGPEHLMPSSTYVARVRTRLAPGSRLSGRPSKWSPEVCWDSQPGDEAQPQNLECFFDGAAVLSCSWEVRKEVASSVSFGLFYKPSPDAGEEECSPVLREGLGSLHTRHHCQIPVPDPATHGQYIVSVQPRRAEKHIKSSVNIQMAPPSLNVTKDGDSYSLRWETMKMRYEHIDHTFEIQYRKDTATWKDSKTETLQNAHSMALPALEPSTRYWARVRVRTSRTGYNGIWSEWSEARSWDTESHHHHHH
# Test protocol: SPR, Fab over captured shCD131
Readout type: Kd (pM)

[[record]]
binder = "9A2-VR24.102 Fab (Fab, V domains shown, recombinant Fab) VH: EVQLLESGGGLVQPGGSLRLSCAASGFTFPWYRVHWVRQAPGKGLEWVSSIRSSGGFPFYNSSVKGRFTISRDNSKNTLYLQMNSLRAEDTAVYYCARFYDSFFDIWGQGTMVTVSS VL: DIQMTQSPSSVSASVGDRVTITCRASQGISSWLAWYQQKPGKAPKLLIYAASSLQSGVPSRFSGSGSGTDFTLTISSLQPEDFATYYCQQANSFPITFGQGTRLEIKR"
quantitative_readout = 188

[[record]]
binder = "9A2-VR24.56 Fab (Fab, V domains shown, recombinant Fab) VH: EVQLLESGGGLVQPGGSLRLSCAASGFTFPWYRVHWVRQAPGKGLEWVSSIRSSGGFTYYNPAVRGRFTISRDNSKNTLYLQMNSLRAEDTAVYYCARFYDSFFDIWGQGTMVTVSS VL: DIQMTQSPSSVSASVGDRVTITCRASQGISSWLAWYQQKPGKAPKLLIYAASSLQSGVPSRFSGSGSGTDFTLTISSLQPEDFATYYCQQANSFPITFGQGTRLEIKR"
quantitative_readout = 353

[[record]]
binder = "9A2-VR39.93 Fab (Fab, V domains shown, recombinant Fab) VH: EVQLLESGGGLVQPGGSLRLSCAASGFTFSHYHMLWVRQAPGKGLEWVSSINGRGRVTYYNPAWKKRFTISRDNSKNTLYLQMNSLRAEDTAVYYCARFYDSFFDIWGQGTMVTVSS VL: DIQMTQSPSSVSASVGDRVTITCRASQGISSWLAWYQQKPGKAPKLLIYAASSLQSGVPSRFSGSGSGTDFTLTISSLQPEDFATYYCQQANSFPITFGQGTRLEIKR"
quantitative_readout = 171

[[record]]
binder = "9A2-VR24.27 Fab (Fab, V domains shown, recombinant Fab) VH: EVQLLESGGGLVQPGGSLRLSCAASGFTFPWYRVHWVRQAPGKGLEWVSSIRSSGGFPYYHQKVKGRFTISRDNSKNTLYLQMNSLRAEDTAVYYCARFYDSFFDIWGQGTMVTVSS VL: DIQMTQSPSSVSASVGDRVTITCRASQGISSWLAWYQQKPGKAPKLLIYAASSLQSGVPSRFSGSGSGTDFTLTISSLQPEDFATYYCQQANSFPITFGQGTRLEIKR"
quantitative_readout = 170

[[record]]
binder = "9A2-VR24.57 Fab (Fab, V domains shown, recombinant Fab) VH: EVQLLESGGGLVQPGGSLRLSCAASGFTFPWYRVHWVRQAPGKGLEWVSSIRSSGGFTYYNPKVKHRFTISRDNSKNTLYLQMNSLRAEDTAVYYCARFYDSFFDIWGQGTMVTVSS VL: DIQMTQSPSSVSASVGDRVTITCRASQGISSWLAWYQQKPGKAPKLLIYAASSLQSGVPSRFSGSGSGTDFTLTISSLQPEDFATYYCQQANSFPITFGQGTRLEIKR"
quantitative_readout = 211

